FYI, the data here is from patent US20200270225A1.

target: [V390I/Y410E/E274V]-CfEcR (Choristoneura fumiferana, UniProt O77240); construct: assay construct b835; assay type: cell-based; details: R, 3T3 Cells, relative to GS-E ligand
Quick rule for you: RMFI (relative maximum fold induction) under 0.5 gets rule met, anything else gets rule not met.

Please review the following examples before continuing.
CCC[C@@H](N(NC(=O)c1ccccc1Br)C(=O)c1cc(C)cc(C)c1)C(C)(C)C [Example 7]: rule not met
CCC[C@@H](N(NC(=O)c1ccc(Cl)nc1)C(=O)c1cc(C)cc(C)c1)C(C)(C)C [Example 28]: rule not met
CCC[C@@H](N(NC(=O)c1cc(C)oc1C)C(=O)c1cc(C)cc(C)c1)C(C)(C)C [Example 26]: rule not met
CCC[C@@H](N(NC(=O)c1cccnc1Cl)C(=O)c1cc(C)cc(C)c1)C(C)(C)C [Example 27]: rule not met
C=CC[C@@H](N(NC(=O)OCc1ccccc1)C(=O)c1cc(C)cc(C)c1)C(C)(C)C [Example 1.5]: rule met

INPUT: Find out if reported RMFI (relative maximum fold induction) for CCC[C@@H](N(NC(=O)c1ccccc1OC)C(=O)c1cc(C)cc(C)c1)C(C)(C)C [Example 4] is less than 0.5
OUTPUT: rule not met

###

I'd appreciate it if you could supply melting point values for the items below.

Below are 5 compounds. Give each one its melting point.
1. CCC[C@@H](N(NC(=O)c1ccccc1Br)C(=O)c1cc(C)cc(C)c1)C(C)(C)C
2. CCC[C@@H](N(NC(=O)c1cccc(OC)c1C)C(=O)c1cc(C)cc(C)c1)C(C)(C)C
3. CCC[C@@H](N(NC(=O)c1ccc2c(c1C)OCCO2)C(=O)c1cc(C)cc(C)c1)C(C)(C)C
4. CCC[C@@H](N(NC(=O)c1ccc(CC)cc1)C(=O)c1cc(C)cc(C)c1)C(C)(C)C
5. CCC[C@@H](N(NC(=O)c1cccc(C)c1)C(=O)c1cc(C)cc(C)c1)C(C)(C)C

OUTPUT:
1: 145 to 147 °C; 2: 141 to 143 °C; 3: 70 °C; 4: 111 to 112 °C; 5: 158 to 159 °C

Field: melting point. Fill in for each record below.
1. CCC[C@@H](N(NC(=O)c1ccc2c(c1CC)OCCO2)C(=O)c1cc(C)cc(C)c1)C(C)(C)C
2. CCC[C@@H](N(NC(=O)c1ccc2ccccc2c1)C(=O)c1cc(C)cc(C)c1)C(C)(C)C

OUTPUT:
128 to 129 °C
91 °C

###

target: [V390I/Y410E/E274V]-CfEcR (Choristoneura fumiferana); construct: assay construct b835; type: cell-based; details: S, 3T3 Cells
pEC50: −log10 of the molar value.
Label rule, in plain words: pEC50 of 6 and up is met, under 6 is not met.

Use these answered entries as a reference point.
Cc1cc(C)cc(C(=O)N(NC(=O)OCc2ccccc2)[C@@H](CCCO)C(C)(C)C)c1 [Example 63]: not met
CCC[C@H](N(NC(=O)c1cccc(OC)c1C)C(=O)c1cc(C)cc(C)c1)C(C)(C)C [Example 47]: met
C=CC[C@H](N(NC(=O)OCc1ccccc1)C(=O)c1cc(C)cc(C)c1)C(C)(C)C [Example 31.4]: not met
CCC[C@H](N(NC(=O)c1ccc(C)cc1)C(=O)c1cc(C)cc(C)c1)C(C)(C)C [Example 38]: met
CCC[C@H](N(NC(=O)c1ccccc1Br)C(=O)c1cc(C)cc(C)c1)C(C)(C)C [Example 36]: met

Attention now shifts to the item below.
INPUT: Exam item: decide whether the reported pEC50 for CCC[C@@H](C1CCCCC1)N(NC(=O)c1cccc(OC)c1)C(=O)c1cc(C)cc(C)c1 [Example 58] is at least 6.
OUTPUT: met
